Assignment: determine reported pIC50 for the given molecules.
System: 817829-284-R-J1-PDC complex spheroid viability
Assay: Anticancer human tumor 817829-284-R-J1-PDC patient-derived colon adenocarcinoma cell line growth inhibition [POLQ]
Conditions: curve of first compound; second compound 3.16 µM
Please report pIC50 as the negative decimal logarithm of the molar concentration, giving only the number.

pIC50 reported for this molecule COc1ccc([C@@H](O)c2cc(-c3ncnc4cc(N5CCOCC5)ccc34)c(F)cc2Cl)nn1 + COC1C(OC(N)=O)C(O)C(Oc2ccc3c(O)c(NC(=O)c4ccc(O)c(CC=C(C)C)c4)c(=O)oc3c2C)OC1(C)C : 6.30

pIC50 reported for this molecule CC[C@@]1(O)C(=O)OCc2c1cc1n(c2=O)Cc2cc3c(CN(C)C)c(O)ccc3nc2-1 + COC1C(OC(N)=O)C(O)C(Oc2ccc3c(O)c(NC(=O)c4ccc(O)c(CC=C(C)C)c4)c(=O)oc3c2C)OC1(C)C : 8.10

pIC50 reported for this molecule O=C(Nc1ccc(O)c(NS(=O)(=O)c2ccc(F)cc2)c1)c1ccc(-c2ccccc2)cc1 + Nc1ccc(C#CCN(C(=O)Cc2ncc(C(F)(F)F)cc2C(F)(F)F)c2ccc(F)cc2)nn1 : 5.15

pIC50 reported for this molecule CC1COCCN1c1cc(-c2ccnn2C)c2ccnc(-c3ccn[nH]3)c2n1 (stereo not given) + Cc1cccc(N(C)C(=O)C2C(O)CCN2c2nc(C)cc(C(F)(F)F)c2C#N)c1 : 7.49

pIC50 reported for this molecule COc1cccc(OCCCN)c1-c1cc(Nc2cnc(C#N)cn2)n[nH]1 + Cc1cccc(N(C)C(=O)C2C(O)CCN2c2nc(C)cc(C(F)(F)F)c2C#N)c1 : 8.32

---

System: 817829-284-R-J1-PDC complex spheroid viability
Assay: Anticancer human tumor 817829-284-R-J1-PDC cell line growth inhibition [POLQ];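 further: spheroids exposed to compounds for 7 days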;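 on viability, T/C: 100% = DMSO vehicle-treated spheroids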
Conditions: second compound 0.1 µM; first compound 0.316 µM; stronger effect = lower value
Metric Name: viability, T/C (%)
Answer format: numeric, % implied, no suffix.

viability, T/C reported for this compound COc1cccc(OCCCN)c1-c1cc(Nc2cnc(C#N)cn2)n[nH]1 + COC1C(OC(N)=O)C(O)C(Oc2ccc3c(O)c(NC(=O)c4ccc(O)c(CC=C(C)C)c4)c(=O)oc3c2C)OC1(C)C : 5.35

viability, T/C reported for this compound O=c1[nH]cc(F)c(=O)[nH]1 + Cc1cccc(N(C)C(=O)C2C(O)CCN2c2nc(C)cc(C(F)(F)F)c2C#N)c1 : 110

viability, T/C reported for this compound O=C(c1cc(Cc2n[nH]c(=O)c3ccccc23)ccc1F)N1CCN(C(=O)C2CC2)CC1 + Nc1ccc(C#CCN(C(=O)Cc2ncc(C(F)(F)F)cc2C(F)(F)F)c2ccc(F)cc2)nn1 : 83.2

viability, T/C reported for this compound C=CC(=O)N1CCN(c2nc(=O)n(-c3c(C)ccnc3C(C)C)c3nc(-c4c(O)cccc4F)c(F)cc23)C(C)C1 (configuration not stated) + Nc1ccc(C#CCN(C(=O)Cc2ncc(C(F)(F)F)cc2C(F)(F)F)c2ccc(F)cc2)nn1 : 101

viability, T/C reported for this compound COc1cc(C2c3cc4c(cc3C(OC3OC5COC(C)OC5C(O)C3O)C3COC(=O)C23)OCO4)cc(OC)c1O (configuration not stated) + Cc1cccc(N(C)C(=O)C2C(O)CCN2c2nc(C)cc(C(F)(F)F)c2C#N)c1 : 11.6

viability, T/C reported for this compound CNCc1ccc(-c2[nH]c3cc(F)cc4c3c2CCNC4=O)cc1 + Cc1cccc(N(C)C(=O)C2C(O)CCN2c2nc(C)cc(C(F)(F)F)c2C#N)c1 : 86.7

viability, T/C reported for this compound O=c1[nH]cc(F)c(=O)[nH]1 + COC1C(OC(N)=O)C(O)C(Oc2ccc3c(O)c(NC(=O)c4ccc(O)c(CC=C(C)C)c4)c(=O)oc3c2C)OC1(C)C : 92.5

viability, T/C reported for this compound CC(C)n1c(=O)n(C)c2cnc3cc(F)c(-c4ccc(OCCCN5CCCCC5)nc4)cc3c21 + Cc1cccc(N(C)C(=O)C2C(O)CCN2c2nc(C)cc(C(F)(F)F)c2C#N)c1 : 91.6

viability, T/C reported for this compound CCc1cc2c(N3CCc4c(cc(Cn5ccnc5)cc4-c4cn(C)nc4C(F)(F)F)C3=O)cc(C)nc2c(OC)n1 + COC1C(OC(N)=O)C(O)C(Oc2ccc3c(O)c(NC(=O)c4ccc(O)c(CC=C(C)C)c4)c(=O)oc3c2C)OC1(C)C : 68.5

viability, T/C reported for this compound COc1ccc([C@@H](O)c2cc(-c3ncnc4cc(N5CCOCC5)ccc34)c(F)cc2Cl)nn1 + Cc1cccc(N(C)C(=O)C2C(O)CCN2c2nc(C)cc(C(F)(F)F)c2C#N)c1 : 66.9

viability, T/C reported for this compound CC1COCCN1c1cc(-c2ccnn2C)c2ccnc(-c3ccn[nH]3)c2n1 (configuration not stated) + Nc1ccc(C#CCN(C(=O)Cc2ncc(C(F)(F)F)cc2C(F)(F)F)c2ccc(F)cc2)nn1 : 5.6

viability, T/C reported for this compound C#Cc1c(F)ccc2cc(O)cc(-c3ncc4c(N5CC6CCC(C5)N6)nc(OCC56CCCN5CC(F)C6)nc4c3F)c12 (configuration not stated) + Nc1ccc(C#CCN(C(=O)Cc2ncc(C(F)(F)F)cc2C(F)(F)F)c2ccc(F)cc2)nn1 : 93
